Below, each entry is listed with its recorded apparent KD of MS2 coat protein.
- Tested on: MS2 coat protein
- protocol text: apparent KD of MS2 coat protein; designed switch direction (-1 OFF switch, 1 ON switch): 1; higher = weaker reporter binding
- assay context: input ligand: microRNA oligo, concentration not stated
Report the figure in µM without appending any unit label.

The observed apparent KD of MS2 coat protein for UAUUAAUCUGUAGGAUAUGUAGGAUAUGGACGAGGAUCACCCGAGCAGCAUCAGCGCACCAGAGGACAGAAGGACGGCCGGGUG [pwkr ssNG2 2F5 2FMN.24] (Eterna round: R96, puzzle: Same State NG 2) when tested with MS2 coat protein stands at 0.411

The observed apparent KD of MS2 coat protein for GUGGUCAGACAUGAGGAUCACCCAUGUGGAAUAAAUAAGGUCAAGGAUAUGGAAUAUAGGAUAUACCAGAAGGUGAGGUUGGUG (Eterna round: R96, puzzle: Same State NG 3) when tested with MS2 coat protein stands at 0.167

The observed apparent KD of MS2 coat protein for UUAUUAUUUAUAGGAUAUUGAUGUUUGCUAGUACAAGAAGGAUAAACAUGAGGAUCACCCAUGUAGUUUAAGGUUAGUUUGUUU [JR_SSNG1_Sub078] (Eterna round: R96, puzzle: Same State NG 1) when tested with MS2 coat protein stands at 0.0252

The observed apparent KD of MS2 coat protein for ACAUGAAAUUUAGGAUAUUUUGUACCUACAUGUGACAUGAGGAUCACCCAUGUGGUAAGUAUAAGAAAGAAGGAAAAGAUAUGU [Equivalence 8 - Jieux - Same State NG 2] (Eterna round: R96, puzzle: Same State NG 2) when tested with MS2 coat protein stands at 0.0412

The observed apparent KD of MS2 coat protein for UUGAAGAAUUAAGGAUAUCGAGUCGUCAGAUUAUACAUGAGGAUCACCCAUGUGGGUUGCGGUAUCGAGAAGGUAAAUUACAAG [JL JR Sub099 mod 5] (Eterna round: R96, puzzle: Same State NG 2) when tested with MS2 coat protein stands at 0.0584

The observed apparent KD of MS2 coat protein for UUGAAGAAUUAAGGAUAUUGAUUACAUAUGUUUAACAUGAGGAUCACCCAUGUGGGUUGCGGUAUCGAGAAGGUAAAUUACUAG [JL SSNG2 1.47] (Eterna round: R96, puzzle: Same State NG 2) when tested with MS2 coat protein stands at 0.122

The observed apparent KD of MS2 coat protein for AACAUGAGGAUCACCCAUGUCAGGCCGCCGGCCUACAUGAGGAAGGAUAUAGCCUCGAAAAUAGGCUAGAAGGUCCUCAUGAAU [Orises] (Eterna round: R96, puzzle: Same State NG 3) when tested with MS2 coat protein stands at 0.00635

The observed apparent KD of MS2 coat protein for UUACUCAUGUAAGGAUAUGCAGCCGAAACGGCUGCAGAAGGUACUAAAAUACAUGAGGAUCACCCAUGUCUAAUUAAUUAAGAC [Mat - Same State NG 1 - JL mod - D84] (Eterna round: R96, puzzle: Same State NG 1) when tested with MS2 coat protein stands at 0.0363

The observed apparent KD of MS2 coat protein for UGUUGUAUUACAGGAUAUCUAUUAUUUUUAGUUAGAGAAGGGUAUUCACAUGAGGAUCACCCAUGUAUAUACGAGGAAGUUGUG [JMF's solution 26] (Eterna round: R96, puzzle: Same State NG 1) when tested with MS2 coat protein stands at 0.0357

The observed apparent KD of MS2 coat protein for CUGCGUAACACAGGAUAUACCUCCGCAAGGAACGUAGAAGGGUGAGUAGCAGACAUGAGGAUCACCCAUGUAAAGGCCAAGGCC [Enqudiso] (Eterna round: R96, puzzle: Same State NG 1) when tested with MS2 coat protein stands at 0.0957

The observed apparent KD of MS2 coat protein for AGAUGUUAAUCAGGAUAUGGGCACAUGAGGAUCACCCAUGUAACGUAGAUACGAUGUGGUCAAGUCUAGAAGGGAUAGCUAACA [SameState NG2 #78] (Eterna round: R96, puzzle: Same State NG 2) when tested with MS2 coat protein stands at 0.0607

The observed apparent KD of MS2 coat protein for UGGCUCAGACGAGGAUAUACGUGGUCACAUGAGGAUCACCCAUGUCUCGAGCUUCGGCUCGAGGCGUAGAAGGCGUCUGAGCCA [SSNG2/6-A2] (Eterna round: R96, puzzle: Same State NG 2) when tested with MS2 coat protein stands at 0.141

The observed apparent KD of MS2 coat protein for GAGUGGUAGAGAGGAUAUGCAUUGUUAUUCACUGUAGAAGGUUUUAACAUGAGGAUCACCCAUGUAGGACUAUUCCUGUGUUUU [Parity 62 - Jieux - Same State NG 1] (Eterna round: R96, puzzle: Same State NG 1) when tested with MS2 coat protein stands at 0.0133

The observed apparent KD of MS2 coat protein for CGUCGUUUGAUAGGAUAUCGCUUUACAUGAGGAUCACCCAUGUUUACCUCGCUGGUUUUUCUUUCCGAGAAGGAUUCUGAUGUU [salish99_SSNG02_r04_030] (Eterna round: R96, puzzle: Same State NG 2) when tested with MS2 coat protein stands at 0.0316

The observed apparent KD of MS2 coat protein for CCGAAAGGAGUAGGAUAUGUAGGAUAUUCCUACAUGAGGAUCACCCAUGUUCGCAUGGAAGAAGGACAGAAGGACACGGAAACG [pwkr ssNG2 2FMN + 1F5.14] (Eterna round: R96, puzzle: Same State NG 2) when tested with MS2 coat protein stands at 0.019

The observed apparent KD of MS2 coat protein for ACAUGAGAAAGAGGAUAUUUUGUACCUACAUGUGACAUGAGGAUCACCCAUGUGGUAAGUAUGAGAAAGAAGGCUUAGAUAUGU [Equivalence 13 - Jieux - Same State NG 2] (Eterna round: R96, puzzle: Same State NG 2) when tested with MS2 coat protein stands at 0.0431

The observed apparent KD of MS2 coat protein for GGAAAGAGGUAAGGAUAUGCAUGGCGGAGACAUGAGGAUCACCCAUGUUGGAGACGAAAUCUAGGGUAGAAGGUACAAGGAAGG [AK SSNG2-V2-11] (Eterna round: R96, puzzle: Same State NG 2) when tested with MS2 coat protein stands at 0.0446

====

- Tested on: MS2 coat protein
- protocol text: apparent KD of MS2 coat protein; designed switch direction (-1 OFF switch, 1 ON switch): 1; higher = weaker reporter binding
- assay context: input ligand: FMN 200 uM
readout name: apparent KD of MS2 coat protein (nM)
Report the figure in nM without appending any unit label.

The observed apparent KD of MS2 coat protein for CUCACUUGGGUAGGAUAUCUAGGAUAUGGGAAAGACUAAGUCUGUAGGUCACCUAACCCAGAUGGAGAGAAGGACCCAACACUC [pwkr ssNG2 2FMN + F9.38] (Eterna round: R96, puzzle: Same State NG 2) when tested with MS2 coat protein stands at 57.9

The observed apparent KD of MS2 coat protein for UUUAGAUAGCGAGGAUAUCGCGAGGAUCACCCGUGAGAAGGCGCAGAGCCGAGGAUCACCCGGCUGAUCCUGAGAAGGAGGUCA (Eterna round: R96, puzzle: Same State NG 1) when tested with MS2 coat protein stands at 92.3

The observed apparent KD of MS2 coat protein for CCAUAGUACAAUUUAGAUCUACAUGAGGAUCACCCAUGUACUGAGGAUAUCAGCUCGAUUAGAGCUGAGAAGGCAGAAUUAAUU [SSNG3/5-A2] (Eterna round: R96, puzzle: Same State NG 3) when tested with MS2 coat protein stands at 58.4

The observed apparent KD of MS2 coat protein for GUGGUCAGACAUGAGGAUCACCCAUGUGGAAUAAAUAAGGAUCAGGAUAUGGAAUAUAGGAUAUACCAGAAGGGAUGGUUGGUG (Eterna round: R96, puzzle: Same State NG 3) when tested with MS2 coat protein stands at 59.9

The observed apparent KD of MS2 coat protein for UAAUUAAGUCAAGGAUAUCACGUCGAUUAGACGUGAGAAGGUGAUUAAUACAUGAGGAUCACCCAUGUAAUACAUGAAUAAUUA [SSNG1/11-B2] (Eterna round: R96, puzzle: Same State NG 1) when tested with MS2 coat protein stands at 37.1

====

Below, each entry is listed with its recorded apparent KD of K4 kissing-loop reporter.
- System: K4 kissing-loop RNA reporter;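 also: bound reporter read as fluorescence of individual clusters on recovered sequencing chips by microscopy, with normalized cluster intensities fitted with a binding model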
- protocol text: apparent KD of K4 kissing-loop reporter; higher = weaker reporter binding
- assay context: Eterna round: R107; input ligand: theophylline 20 uM
Report the figure in nM without appending any unit label.

| macromolecule sequence | tested on | apparent KD of K4 kissing-loop reporter, nM |
| --- | --- | --- |
| GGAUCCACCAGUGAUGUUGGAGAAAACUUCAAGGAUAUGACGAAAGUCAGAAGGUGGUAGACUGGUCAAAGUCCGGUCGGAUCCA [FmnA10 U29+U66] | K4 kissing-loop RNA reporter | 147 |
| CAAAUAUGCGGUAGGUUCAAGCGCUGGGAAGGAGCGCAGAUGACUGCAGGUAGGUCGCCCAGUGAUGUUGGGCUUUCCACCUAUU [Edbeaan] | K4 kissing-loop RNA reporter | 146 |
| CCAUGAGGAUAAGAUGAUAUCAUAACAGAAGGAGCGAGUGAUAACUCAGGUAGGUCGCUGAAUUUAUCGAGUGAUGUUCGAUGAA [Same State Arginine A GF11] | K4 kissing-loop RNA reporter | 179 |
| GCUAUGGUAGGAAGGAGCGCGGACGAUAUUUAUCGAGUGAUGUUCGAAUAAUUAAAUAAAACGCAGGUAGGUCGCCUACUAUAGC [Arginine B K4 27] | K4 kissing-loop RNA reporter | 102 |

The observed apparent KD of K4 kissing-loop reporter for AAUUUAGUGACGGCCGCCACUAGGGUGAUUUUUUUGUUUGAGUGAUGUUUUGAUGUUUGAUUUUGUAGGACCGGGUUAGGUGAUG [cccmullin] when tested with K4 kissing-loop RNA reporter stands at 364

The observed apparent KD of K4 kissing-loop reporter for UUCGAUCAGUGAUGUUGAUCAUCAGUCGAAGGAGCGCUAGAGAUAGCAGGUAGGUCGCGACUGCAAGGUGUGAGAACACCUCGAA [Arg A SS t9a] when tested with K4 kissing-loop RNA reporter stands at 444

The observed apparent KD of K4 kissing-loop reporter for GAUUUAGAGGCGGCCGCCACUAGUGAUGUUAGUGAUGUUUGAUACUGAAUAUAUCGGCGUGUAGAUAGGACCGGGCCAGAUGGAG [zwqqmullin] when tested with K4 kissing-loop RNA reporter stands at 211

The observed apparent KD of K4 kissing-loop reporter for UACCUGCUGUCAGGAUAUGAGUGCAGUGAUGUUGCACUCAACGUAACCAUCUUGAAAUACAAACACUCAGAAGGGACGCACGAAG [Isattema] when tested with K4 kissing-loop RNA reporter stands at 167

The observed apparent KD of K4 kissing-loop reporter for AGUAUUGAGUCGGCCGCCACUGGUUUAAUGAGUGUCAAUUCUGGAUCAAAGUGAUGUUUUGGAGCUAGGACCGGGACCAUUGUUA [#07 K4 Tryptophan B Exclusion] when tested with K4 kissing-loop RNA reporter stands at 360

The observed apparent KD of K4 kissing-loop reporter for ACCAUUUUACCGGCAGUAGUGAUGUUACUCCGAGGACCGGUACGGCCGCCACUCGCGAACGUAGGGUCGCGCACUCAAAGAGUGC when tested with K4 kissing-loop RNA reporter stands at 67

The observed apparent KD of K4 kissing-loop reporter for AGUGUUAGGUUAGAUACCAGCCGUCUAUGGAUAAUCCUCAGACCGCCAGUGAUGUUGGCAGGCCCUUGGCAGCUAACAGAACAGA [Reinonor] when tested with K4 kissing-loop RNA reporter stands at 164

The observed apparent KD of K4 kissing-loop reporter for GCGCGUGUUAAAGGAUAUAGCAGGUGAUACAAGAAAGUGAGUGAUGUUUAUGUAGAUGAUGAUAUGUUAGAAGGUUAACAAGCGC [abcdefghijklmnopq] when tested with K4 kissing-loop RNA reporter stands at 739

The observed apparent KD of K4 kissing-loop reporter for AAUAUAAAGCAGUGAUGUUGCUUAUGAGAAGGAGCGCACGAAAGUGCAGGUAGGUCGCUCAGCCAAGUGGACGAAAACGUCCACA [whbob_SS_Arginine_A_sa106] when tested with K4 kissing-loop RNA reporter stands at 85.3

The observed apparent KD of K4 kissing-loop reporter for AGGCGGCAAGAUUGAUUGGAAAGUAAUCGACGAGGACCGGUACGGCCGCCACUCGAACACCAGUGAUGUUGGUCUGGCUUAAGCC [Exclusion Tryptophan A GF 20] when tested with K4 kissing-loop RNA reporter stands at 477

The observed apparent KD of K4 kissing-loop reporter for AGAGUUAUGCGAGGAUAUGCAGUUAGUACUCAAAGAGUACUAACAGCAGAGUGAUGUUCUGUGAAAGCAGAAGGUGCAUAACUCA [Omei KL FMN B SS B v7] when tested with K4 kissing-loop RNA reporter stands at 641

The observed apparent KD of K4 kissing-loop reporter for UGAUACCAGACGGCCGCCACUGGUGCAGUCAAAGACUGCUAAAACCAAAUCGUGGAGUGAUGUUCCAGGACCGGGUCUGGUAUCU [TrypBX 20 #SwitchBubble #Palindromic #StaticStem] when tested with K4 kissing-loop RNA reporter stands at 462

This collection of values is drawn from the supplement of paper PMC9170038.
